- ASSAY_SYSTEM: OR2 (Homo sapiens, UniProt P41145, G198V/DELINS201-226[…]/E297Q, form not given)
- Sequence (P41145 with tags, fused parts or gaps DELINS198-226[withheld]/E297Q, form open): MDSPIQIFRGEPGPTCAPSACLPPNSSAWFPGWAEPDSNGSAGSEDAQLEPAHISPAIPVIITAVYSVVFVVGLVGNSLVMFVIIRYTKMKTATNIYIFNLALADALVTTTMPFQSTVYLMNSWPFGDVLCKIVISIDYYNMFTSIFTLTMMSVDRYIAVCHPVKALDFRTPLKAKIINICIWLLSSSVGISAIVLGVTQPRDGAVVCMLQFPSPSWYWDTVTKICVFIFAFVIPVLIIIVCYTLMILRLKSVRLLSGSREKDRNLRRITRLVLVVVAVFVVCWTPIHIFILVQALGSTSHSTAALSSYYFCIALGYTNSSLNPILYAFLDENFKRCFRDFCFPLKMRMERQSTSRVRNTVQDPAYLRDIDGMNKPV
- APPLIED_CONDITIONS: read-out: EC50, signaling by OR2; signaling by OR2
MEASURE: EC50 (pM)

molecule="CCC12CCN(CC3(O)CC3)C(Cc3ccc(O)cc31)C2(C)C (stereo not shown)" measure=EC50 numeric_readout=340
